System: Staphylococcus aureus
assay-notes: Antimicrobial activity against methicillin-resistant Staphylococcus aureus isolate 12-16 after 18 hrs by agar dilution assay
Format: functional
assay-context: isolate 12-16, 18 h
Assignment: determine reported MIC for the given compounds.
Return type: number; implicit unit µg/mL.

Would you please give the reported MIC of COc1ccc2c(c[n+]3c4c2ccc2c5c(cc(c24)CC3)OCO5)c1OCC(=O)c1ccc(C)cc1.[Br-] with Staphylococcus aureus? 4

For Staphylococcus aureus, give MIC of the listed compound: COc1ccc2c(c[n+]3c4c2ccc2c5c(cc(c24)CC3)OCO5)c1OCC(=O)C12CC3CC(CC(C3)C1)C2.[Br-] 2

Fill: MIC (Staphylococcus aureus) for this compound COc1ccc2c(c[n+]3c4c2ccc2c5c(cc(c24)CC3)OCO5)c1O.[Cl-] 0.5

* * *

Would you kindly list MIC for each of these compounds?
System: Staphylococcus aureus
assay-notes: Antimicrobial activity against methicillin-resistant Staphylococcus aureus isolate 12-13 after 18 hrs by agar dilution assay
Assay type: functional
assay-context: isolate 12-13, 18 h
# output: bare number, implied unit µg/mL

Query MIC for COc1ccc2c(c[n+]3c4c2ccc2c5c(cc(c24)CC3)OCO5)c1OCC(=O)C(C)(C)C.[Br-] 32

Return value of MIC for input COc1ccc2c(c[n+]3c4c2ccc2c5c(cc(c24)CC3)OCO5)c1OCC(=O)c1ccc(C)cc1.[Br-] , no commentary. 4

Entry COc1ccc2c(c[n+]3c4c2ccc2c5c(cc(c24)CC3)OCO5)c1OCC(=O)c1ccccc1.[Br-] needs its MIC filled in; supply it. 32

Give the measured MIC for COc1ccc2c(c[n+]3c4c2ccc2c5c(cc(c24)CC3)OCO5)c1N.[Cl-] 4

Read the entry COc1ccc2c(c[n+]3c4c2ccc2c5c(cc(c24)CC3)OCO5)c1NC(=O)c1cc(C)n(C)n1.[Cl-] and write its reported MIC. 16

Input C[C@H]1COc2c(N3CCN(C)CC3)c(F)cc3c(=O)c(C(=O)O)cn1c23.C[C@H]1COc2c(N3CCN(C)CC3)c(F)cc3c(=O)c(C(=O)O)cn1c23.O [LEVOFLOXACIN] , output reported MIC. 32

* * *

System: Staphylococcus aureus
assay-notes: Antimicrobial activity against methicillin-resistant Staphylococcus aureus isolate 12-13 after 18 hrs by agar dilution assay
Format: functional
assay-context: isolate 12-13, 18 h
observed-property: MIC (µg/mL)
Field: numeric (µg/mL). Do not append units.

Provide MIC, system Staphylococcus aureus, entry COc1ccc2c(c[n+]3c4c2ccc2c5c(cc(c24)CC3)OCO5)c1NC(=O)CC1CCCC1.[Cl-] 16

Report MIC from Staphylococcus aureus testing of COc1ccc2c(c[n+]3c4c2ccc2c5c(cc(c24)CC3)OCO5)c1O.[Cl-] 1

System Staphylococcus aureus. Read-out MIC. Item COc1cccc(C(=O)COc2c(OC)ccc3c2c[n+]2c4c3ccc3c5c(cc(c34)CC2)OCO5)c1.[Br-] . Report value. 8

GET MIC where system = Staphylococcus aureus and item = COc1ccc2c(c[n+]3c4c2ccc2c5c(cc(c24)CC3)OCO5)c1OCC(=O)c1cccc(OC(F)(F)F)c1.[Br-] 32

* * *

System: Staphylococcus aureus
assay-notes: Antimicrobial activity against vancomycin-intermediate Staphylococcus aureus ATCC 700698 after 18 hrs by agar dilution assay
Type: functional
assay-context: ATCC 700698, 18 h
observed-property: MIC

Dear colleague, please send me the reported MIC for COc1ccc2c(c[n+]3c4c2ccc2c5c(cc(c24)CC3)OCO5)c1OC(C)=O.[Cl-] when you can. 16 mg/L

Return value of MIC for input COc1ccc2c(c[n+]3c4c2ccc2c5c(cc(c24)CC3)OCO5)c1NCc1ccccc1.[Cl-] , no commentary. 32 mg/L

Supply MIC value. Item: COc1ccc2c(c[n+]3c4c2ccc2c5c(cc(c24)CC3)OCO5)c1OCC(=O)C12CC3CC(CC(C3)C1)C2.[Br-] 8 mg/L

Fill in reported MIC for this entry: COc1cccc(C(=O)COc2c(OC)ccc3c2c[n+]2c4c3ccc3c5c(cc(c34)CC2)OCO5)c1.[Br-] > 64 mg/L

Tell me MIC reported for COc1ccc2c(c[n+]3c4c2ccc2c5c(cc(c24)CC3)OCO5)c1O.[Cl-] 0.5 mg/L

Please list MIC recorded for the compound COc1ccc(CNc2c(OC)ccc3c2c[n+]2c4c3ccc3c5c(cc(c34)CC2)OCO5)cc1.[Cl-] 16 mg/L

Dear colleague, please send me the reported MIC for COc1ccc2c(c[n+]3c4c2ccc2c5c(cc(c24)CC3)OCO5)c1NC(=O)c1csnn1.[Cl-] when you can. 16 mg/L

Name the recorded MIC of the item COc1ccc2c(c[n+]3c4c2ccc2c5c(cc(c24)CC3)OCO5)c1NC(=O)CC1CCCC1.[Cl-] in your answer. 64 mg/L

Tell me measured MIC for COc1ccc2c(c[n+]3c4c2ccc2c5c(cc(c24)CC3)OCO5)c1NC(=O)c1cc(C)n(C)n1.[Cl-] please. > 64 mg/L

Fill in reported MIC for this entry: COc1ccc2c(c[n+]3c4c2ccc2c5c(cc(c24)CC3)OCO5)c1NCc1ccco1.[Cl-] > 64 mg/L

Return MIC for the following compound: COc1ccc2c(c[n+]3c4c2ccc2c5c(cc(c24)CC3)OCO5)c1OCC(=O)c1ccc(C(F)(F)F)cc1.[Br-] > 64 mg/L

Identify MIC associated with the compound COc1ccc2c(c[n+]3c4c2ccc2c5c(cc(c24)CC3)OCO5)c1OCC(=O)c1ccc(F)cc1.[Br-] > 64 mg/L

Complete the entry with MIC for COc1ccc(C(=O)COc2c(OC)ccc3c2c[n+]2c4c3ccc3c5c(cc(c34)CC2)OCO5)cc1C(F)(F)F.[Br-] > 64 mg/L

Give recorded MIC. COc1ccc2c(c[n+]3c4c2ccc2c5c(cc(c24)CC3)OCO5)c1OCC(=O)C1CC1.[Br-] > 64 mg/L

Supply reported MIC belonging to this compound: COc1ccc2c(c[n+]3c4c2ccc2c5c(cc(c24)CC3)OCO5)c1OCC(=O)c1ccccc1OC(F)(F)F.[Br-] > 64 mg/L

Report MIC, nothing else, for this compound: COc1ccc2c(c[n+]3c4c2ccc2c5c(cc(c24)CC3)OCO5)c1OCC(=O)c1ccccc1.[Br-] > 64 mg/L

Answer with reported MIC of CCC(=O)COc1c(OC)ccc2c1c[n+]1c3c2ccc2c4c(cc(c23)CC1)OCO4.[Br-] > 64 mg/L

Assign MIC to the following record: COc1ccc2c(c[n+]3c4c2ccc2c5c(cc(c24)CC3)OCO5)c1NC(=O)c1c(C)noc1C.[Cl-] > 64 mg/L

* * *

Give measured MIC for each item. Keep answers brief.
Tested on: Staphylococcus aureus
assay-notes: Antimicrobial activity against methicillin-sensitive Staphylococcus aureus isolate 13-17 after 18 hrs by agar dilution assay
Type: functional
assay-context: isolate 13-17, 18 h
Please state the figure in µg/mL; there is no need to write the unit.

Please supply the value of reported MIC for the item COc1ccc2c(c[n+]3c4c2ccc2c5c(cc(c24)CC3)OCO5)c1OCC(=O)C12CC3CC(CC(C3)C1)C2.[Br-] 2

Note down MIC recorded for COc1ccc2c(c[n+]3c4c2ccc2c5c(cc(c24)CC3)OCO5)c1NCc1ccco1.[Cl-] 32

Provide only the value of recorded MIC for COc1ccc2c(c[n+]3c4c2ccc2c5c(cc(c24)CC3)OCO5)c1OCC(=O)C(C)(C)C.[Br-] 32

Input COc1ccc2c(c[n+]3c4c2ccc2c5c(cc(c24)CC3)OCO5)c1NC(=O)CC1CCCC1.[Cl-] , output reported MIC. 8

* * *

Assignment: determine reported MIC for the given molecules.
System: Staphylococcus aureus
assay-notes: Antimicrobial activity against methicillin-sensitive Staphylococcus aureus isolate 13-17 after 18 hrs by agar dilution assay
Assay type: functional
assay-context: isolate 13-17, 18 h
Expressed in µg/mL, but write only the number.

# return recorded MIC for input COc1ccc2c(c[n+]3c4c2ccc2c5c(cc(c24)CC3)OCO5)c1NC(=O)c1csnn1.[Cl-] 2

Give reported MIC value for COc1ccc2c(c[n+]3c4c2ccc2c5c(cc(c24)CC3)OCO5)c1OCC(=O)c1ccccc1OC(F)(F)F.[Br-] 8

Report MIC for COc1ccc2c(c[n+]3c4c2ccc2c5c(cc(c24)CC3)OCO5)c1OCC(=O)c1ccc(F)cc1.[Br-] 16

Identify the reported MIC for the following entry. COc1ccc2c(c[n+]3c4c2ccc2c5c(cc(c24)CC3)OCO5)c1NC(=O)c1cc(C)n(C)n1.[Cl-] 16

Tell me measured MIC for C[C@H]1COc2c(N3CCN(C)CC3)c(F)cc3c(=O)c(C(=O)O)cn1c23.C[C@H]1COc2c(N3CCN(C)CC3)c(F)cc3c(=O)c(C(=O)O)cn1c23.O please. 0.125

* * *

System: Staphylococcus aureus
assay-notes: Antimicrobial activity against methicillin-resistant Staphylococcus aureus ATCC-BAA-1708 after 18 hrs by agar dilution assay
Type: functional
assay-context: ATCC-BAA-1708, 18 h
observed-property: MIC (µg/mL)
Dear colleague, please return just the value in µg/mL, with no unit written.

Tell me its MIC given C[C@H]1COc2c(N3CCN(C)CC3)c(F)cc3c(=O)c(C(=O)O)cn1c23.C[C@H]1COc2c(N3CCN(C)CC3)c(F)cc3c(=O)c(C(=O)O)cn1c23.O as the entry. 16

Entry COc1ccc2c(c[n+]3c4c2ccc2c5c(cc(c24)CC3)OCO5)c1NC(=O)c1cc(C)n(C)n1.[Cl-] needs its MIC filled in; supply it. 16

Find the measured MIC of COc1ccc2c(c[n+]3c4c2ccc2c5c(cc(c24)CC3)OCO5)c1OCC(=O)c1ccccc1OC(F)(F)F.[Br-] and report it. 32

Return MIC (reported value) for this compound: COc1ccc2c(c[n+]3c4c2ccc2c5c(cc(c24)CC3)OCO5)c1NC(=O)c1csnn1.[Cl-] 2

Please report MIC for the following compound: COc1ccc2c(c[n+]3c4c2ccc2c5c(cc(c24)CC3)OCO5)c1OCC(=O)C(C)(C)C.[Br-] 32

Query MIC for COc1ccc2c(c[n+]3c4c2ccc2c5c(cc(c24)CC3)OCO5)c1OCC(=O)c1ccc(C)cc1.[Br-] 8

Kindly indicate its recorded MIC. Item: COc1ccc(C(=O)COc2c(OC)ccc3c2c[n+]2c4c3ccc3c5c(cc(c34)CC2)OCO5)cc1C(F)(F)F.[Br-] 16

# return recorded MIC for input COc1ccc2c(c[n+]3c4c2ccc2c5c(cc(c24)CC3)OCO5)c1NCc1ccccc1.[Cl-] 64

Tell me measured MIC for COc1ccc2c(c[n+]3c4c2ccc2c5c(cc(c24)CC3)OCO5)c1OC(C)=O.[Cl-] please. 8

Answer with the recorded MIC for the compound listed here: COc1ccc2c(c[n+]3c4c2ccc2c5c(cc(c24)CC3)OCO5)c1OCC(=O)c1ccc(F)cc1.[Br-] 64

Tell me MIC reported for COc1ccc2c(c[n+]3c4c2ccc2c5c(cc(c24)CC3)OCO5)c1NC(=O)CC1CCCC1.[Cl-] 4

Using the record for COc1cccc(C(=O)COc2c(OC)ccc3c2c[n+]2c4c3ccc3c5c(cc(c34)CC2)OCO5)c1.[Br-] , state its measured MIC. 64
